testDetails: Gastrointestinal absorption of compound 1 after oral administration (plasma AUC)
Assay type: in vivo, Sprague-Dawley rats
recordedConditions: male, Sprague-Dawley, control group: 70.5 mg/kg compound 1 alone, rat, compound 1 as free acid in plasma
reportedEndpoint: AUC (ng·h/mL)
Kindly provide the numeric value in ng·h/mL only, without the unit symbol.

Please give the measured AUC for this molecule: C[C@@H](O)[C@H]1C(=O)N2C(C(=O)O)=C([C@H]3CCCO3)S[C@H]12 [compound 1, hydrate]
12600
